Catalogue of Hemolysis at 100 μM values
Tested on: human red blood cells (hRBC)
Experiment: Hemolysis
Assay type: cell-based
Bridge positions count the residues as written; N and C are the ends. Square brackets hold non-standard residues; d marks the D form. Peptide text beside a SMILES is read from it. 2Nal = N[C@@H](Cc1ccc2ccccc2c1)C(=O)O; Cit = NC(=O)NCCC[C@H](N)C(=O)O

molecule="N=C(N)NCCC[C@@H]1NC(=O)[C@@H]2CSSC[C@H](NC(=O)[C@H](Cc3ccc4ccccc4c3)NC(=O)[C@H](CCCNC(=N)N)NC(=O)[C@H](Cc3c[nH]c4ccccc34)NC(=O)[C@H]3CCCN3C(=O)CNC1=O)C(=O)N[C@@H](Cc1ccc(O)cc1)C(=O)N[C@@H](CCC(N)=O)C(=O)N[C@@H](CCCCN)C(=O)N1CCC[C@@H]1C(=O)N1CCC[C@H]1C(=O)N[C@@H](Cc1ccc(O)cc1)C(=O)N[C@@H](CCCNC(=N)N)C(=O)N[C@@H](CCCNC(N)=O)C(=O)N2 [Ex. 55] (cyclo(YR[Cit]CRG[dP]WR[2Nal]CYQK[dP]P); disulfide 4-11)" quantity="Hemolysis at 100 μM" endpoint_result=0.1%

Now for another entry.
Inquiry: Complete the entry with Hemolysis at 100 μM for N=C(N)NCCC[C@@H]1NC(=O)[C@@H]2CSSC[C@H](NC(=O)[C@H](Cc3ccc4ccccc4c3)NC(=O)[C@H](CCCNC(=N)N)NC(=O)[C@H](CCCNC(=N)N)NC(=O)[C@H]3CCCN3C(=O)CNC1=O)C(=O)N[C@@H](Cc1ccc(O)cc1)C(=O)N[C@@H](CCC(N)=O)C(=O)N[C@@H](CCCCN)C(=O)N1CCC[C@@H]1C(=O)N1CCC[C@H]1C(=O)N[C@@H](Cc1ccc(O)cc1)C(=O)N[C@@H](CCCNC(=N)N)C(=O)N[C@@H](Cc1ccc(O)cc1)C(=O)N2 [Ex. 72] (cyclo(YRYCRG[dP]RR[2Nal]CYQK[dP]P); disulfide 4-11)
Reply text: 0.5%
